Listed here are molecules together with their documented SI MRC-5/Colo 320.
Tested on: Colo 320/MDR-LRP human colonic adenocarcinoma cell line
Test: Cytotoxicity (MTT) on resistant Colo 320 cells
Format: cell-based
Conditions: ratio IC50 non-tumour cells / IC50 cancer cells
Description: Three cell lines have been used in this study: the doxorubicin-sensitive Colo 205 (CCL-222, ATCC, Manassas, VA, USA) human colonic adenocarcinoma cell line; the multidrug resistant Colo 320/MDR-LRP expressing P-gp (MDR1)-LRP (CCL-220.1, ATCC) human colonic adenocarcinoma cell line; and the MRC-5 human embryonal lung fibroblast cell line (CCL-171, ATCC). […] The selectivity indexes (SI) were calculated as the ratio of the IC50 value in the non-tumour cells and the IC50 in the cancer cell lines. […]
Marks after values point to notes of the source that are not given here.

Example molecules with recorded SI MRC-5/Colo 320:
# molecule, SI MRC-5/Colo 320
measured = [
    ("N#CC[Se]C(=O)c1ccc(F)c(Cl)c1 [N6]", ">6 *"),
    ("N#CC[Se]C(=O)c1cccc(F)c1 [N2, Se-(Cyanomethyl) 3-Fluorobenzoselenoate]", ">6 *"),
]

Given the molecule N#CC[Se]C(=O)c1cc(C(F)(F)F)cc(C(F)(F)F)c1 [N7] , what is its reported SI MRC-5/Colo 320?
>6 *

Given the molecule N#CC[Se]C(=O)c1cccc(C(F)(F)F)c1 [N5] , what is its reported SI MRC-5/Colo 320?
>6 *

Given the molecule N#CC[Se]C(=O)c1ccc(Br)cc1 [N3, Se-(Cyanomethyl) 4-Bromobenzoselenoate] , what is its reported SI MRC-5/Colo 320?
>6 *

Given the molecule N#CC[Se]C(=O)c1ccccc1C(F)(F)F [N4] , what is its reported SI MRC-5/Colo 320?
>6 *

Given the molecule N#CC[Se]C(=O)c1cccs1 [N1] , what is its reported SI MRC-5/Colo 320?
>6 *

Where do these numbers come from? They come from paper PMC8465942.
